# TARGET: cAMP-linked metabotropic glutamate receptors (rat hippocampus)
# ASSAY_PROCEDURE: Inhibition of forskolin-stimulated cAMP formation in rat hippocampus
EC50 by entry:
ASSAY_READOUT: EC50

1. NC1(C(=O)O)CCC2C(C(=O)O)C21 (single isomer, unassigned; (+)) [Compound 6] :: 0.036 µM
2. NC1(C(=O)O)CCC2C(C(=O)O)C21 (single isomer, unassigned; (-)) [Compound 7] :: 29.4 µM
